Target: tetanus neurotoxin (TeNT), authentic tetanus holotoxin (Clostridium tetani, UniProt P04958 2-1315)
Sequence (P04958 2-457 limits assumed, chain 1 of 2): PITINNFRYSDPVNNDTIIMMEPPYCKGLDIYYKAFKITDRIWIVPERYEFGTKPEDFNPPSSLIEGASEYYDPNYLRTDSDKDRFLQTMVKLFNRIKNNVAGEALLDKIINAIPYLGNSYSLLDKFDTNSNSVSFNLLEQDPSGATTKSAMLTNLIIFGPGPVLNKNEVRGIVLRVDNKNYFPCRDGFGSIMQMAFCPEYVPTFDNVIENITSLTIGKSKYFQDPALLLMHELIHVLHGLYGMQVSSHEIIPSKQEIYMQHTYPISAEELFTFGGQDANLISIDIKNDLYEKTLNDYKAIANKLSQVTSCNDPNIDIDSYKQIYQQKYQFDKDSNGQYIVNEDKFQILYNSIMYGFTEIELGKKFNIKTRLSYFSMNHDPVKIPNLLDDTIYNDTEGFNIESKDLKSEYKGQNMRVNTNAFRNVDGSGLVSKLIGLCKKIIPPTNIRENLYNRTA
Sequence (P04958 458-1315 limits assumed, chain 2 of 2): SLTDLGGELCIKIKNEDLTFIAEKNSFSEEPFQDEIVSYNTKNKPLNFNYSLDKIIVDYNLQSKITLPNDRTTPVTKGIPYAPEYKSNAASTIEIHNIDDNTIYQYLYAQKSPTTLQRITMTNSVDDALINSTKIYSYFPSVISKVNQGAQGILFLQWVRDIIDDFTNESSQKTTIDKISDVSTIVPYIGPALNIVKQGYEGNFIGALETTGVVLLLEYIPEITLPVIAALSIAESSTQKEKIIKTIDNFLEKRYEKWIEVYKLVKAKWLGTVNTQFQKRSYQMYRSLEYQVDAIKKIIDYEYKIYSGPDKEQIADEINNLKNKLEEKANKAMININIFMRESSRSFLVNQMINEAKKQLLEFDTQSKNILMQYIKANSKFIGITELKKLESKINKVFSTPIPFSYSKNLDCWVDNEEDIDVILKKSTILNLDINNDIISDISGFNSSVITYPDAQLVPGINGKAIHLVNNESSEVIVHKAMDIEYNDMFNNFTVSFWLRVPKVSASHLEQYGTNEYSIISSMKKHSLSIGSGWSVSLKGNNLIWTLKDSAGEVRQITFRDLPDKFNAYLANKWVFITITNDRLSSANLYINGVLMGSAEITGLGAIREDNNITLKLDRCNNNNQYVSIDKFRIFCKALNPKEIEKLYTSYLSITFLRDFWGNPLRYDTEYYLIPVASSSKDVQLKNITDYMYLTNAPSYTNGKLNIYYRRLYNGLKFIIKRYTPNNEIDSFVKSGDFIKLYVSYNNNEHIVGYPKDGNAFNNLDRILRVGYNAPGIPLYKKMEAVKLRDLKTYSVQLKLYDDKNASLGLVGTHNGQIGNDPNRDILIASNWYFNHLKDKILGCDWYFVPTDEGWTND
Assay: competition ELISA on TeNT, binder biotinylated; competitor mAb 6F57; also: test concentration or dose not given here
assayMetric: % inhibition of binding

SVT34L (VHH) VHH: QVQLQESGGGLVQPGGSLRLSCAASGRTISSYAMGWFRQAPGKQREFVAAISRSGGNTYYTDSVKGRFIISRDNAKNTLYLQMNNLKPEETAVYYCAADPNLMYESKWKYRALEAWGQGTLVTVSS    13%
SVT15L-3FW4M (VHH) VHH: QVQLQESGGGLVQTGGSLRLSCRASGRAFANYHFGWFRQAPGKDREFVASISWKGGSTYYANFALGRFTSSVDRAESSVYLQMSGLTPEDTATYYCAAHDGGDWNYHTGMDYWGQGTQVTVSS    6%
SVT16L (VHH) VHH: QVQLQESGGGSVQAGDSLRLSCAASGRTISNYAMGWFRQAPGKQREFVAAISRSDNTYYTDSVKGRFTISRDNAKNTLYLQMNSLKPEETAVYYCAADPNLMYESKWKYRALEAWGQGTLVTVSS    2%
SVT08L (VHH) VHH: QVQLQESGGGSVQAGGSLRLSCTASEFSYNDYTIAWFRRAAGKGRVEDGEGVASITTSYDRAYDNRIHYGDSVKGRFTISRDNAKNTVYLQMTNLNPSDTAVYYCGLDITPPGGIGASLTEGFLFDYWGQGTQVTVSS    50%
SVT15L (VHH) VHH: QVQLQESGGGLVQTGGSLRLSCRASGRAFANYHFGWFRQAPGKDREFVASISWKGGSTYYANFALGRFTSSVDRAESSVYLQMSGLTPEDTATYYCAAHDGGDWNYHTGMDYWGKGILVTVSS    4%
SVT03L (VHH) VHH: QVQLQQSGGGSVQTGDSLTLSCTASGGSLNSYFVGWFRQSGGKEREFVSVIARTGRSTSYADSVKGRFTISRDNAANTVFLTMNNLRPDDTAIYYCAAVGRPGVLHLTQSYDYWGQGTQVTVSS    17%
SVT02L (VHH) VHH: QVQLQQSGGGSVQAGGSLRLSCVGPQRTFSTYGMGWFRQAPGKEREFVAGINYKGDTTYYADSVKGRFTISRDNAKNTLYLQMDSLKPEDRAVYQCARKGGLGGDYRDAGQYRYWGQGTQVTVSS    19%
SVT22L (VHH) VHH: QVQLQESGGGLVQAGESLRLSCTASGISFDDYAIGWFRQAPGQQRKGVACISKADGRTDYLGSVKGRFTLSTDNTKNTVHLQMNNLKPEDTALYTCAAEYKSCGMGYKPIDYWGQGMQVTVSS    10%
SVT13L (VHH) VHH: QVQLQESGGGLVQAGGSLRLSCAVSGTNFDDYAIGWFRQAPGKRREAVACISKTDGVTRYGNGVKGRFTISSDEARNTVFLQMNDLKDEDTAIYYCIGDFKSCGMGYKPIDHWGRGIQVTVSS    0%
SVT06L (VHH) VHH: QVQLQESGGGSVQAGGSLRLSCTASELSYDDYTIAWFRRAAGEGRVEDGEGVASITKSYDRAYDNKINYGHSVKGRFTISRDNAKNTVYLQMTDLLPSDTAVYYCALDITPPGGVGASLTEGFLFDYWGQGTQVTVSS    53%
